Reported pKd values for the following binders.
Molecular target: cynoPD-1_Fc (cyno, UniProt B0LAJ3 25-170)
Sequence (B0LAJ3 entry or part of it limits assumed): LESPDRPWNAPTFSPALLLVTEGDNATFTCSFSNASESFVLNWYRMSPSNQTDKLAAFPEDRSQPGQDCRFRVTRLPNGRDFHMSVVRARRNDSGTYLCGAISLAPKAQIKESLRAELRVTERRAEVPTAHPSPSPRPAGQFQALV
Assay: BLI (ForteBio), Fab in solution, cynoPD-1_Fc on sensor tip
Scale for pKd: -log10 of concentration given in mol/L; no unit attached.

1. xd-16 D, Fab format produced from IgG1 expressed in yeast (Fab, V domains shown, Fab produced from the yeast IgG1) VH: QVQLVQSGAEVKKPGSSVKVSCKASGGTFSSTAISWVRQAPGQGLEWMGGIWPSFDTANYAQKFRGRVTITADESTSTAYMELSSLRSEDTAVYYCARAEYSSTGTFDYWGQGTLVTVSS VL: DIQMTQSPSSVSASVGDRVTITCRASQGISSWLAWYQQKPGKAPKLLISAASSLQSGVPSRFSGSGSGTDFTLTISSLQPEDFATYYCQQANHLPFTFGGGTKVEIK : 8.92
2. xd-16 E, Fab format produced from IgG1 expressed in yeast (Fab, V domains shown, Fab produced from the yeast IgG1) VH: QVQLVQSGAEVKKPGSSVKVSCKASGGTFSSTAISWVRQAPGQGLEWMGGIWPSFGTANYARKFQGRVTITADESTSTAYMELSSLRSEDTAVYYCARAEYSSTGIFDYWGQGTLVTVSS VL: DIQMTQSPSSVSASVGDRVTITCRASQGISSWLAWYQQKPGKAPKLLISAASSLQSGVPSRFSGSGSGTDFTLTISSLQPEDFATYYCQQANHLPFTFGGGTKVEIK : 9.00
3. xd-16 C, Fab format produced from IgG1 expressed in yeast (Fab, V domains shown, Fab produced from the yeast IgG1) VH: QVQLVQSGAEVKKPGSSVKVSCKASGGTFSSTAISWVRQAPGQGLEWMGGIWPSFGTASYAQKFRGRVTITADESTSTAYMELSSLRSEDTAVYYCARAEYSSTGTFDYWGQGTLVTVSS VL: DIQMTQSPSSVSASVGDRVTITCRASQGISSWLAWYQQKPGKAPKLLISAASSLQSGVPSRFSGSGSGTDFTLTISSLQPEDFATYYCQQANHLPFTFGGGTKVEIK : 9.14

Turning to the following binder.
For record xd-16 B, Fab format produced from IgG1 expressed in yeast (Fab, V domains shown, Fab produced from the yeast IgG1) VH: QVQLVQSGAEVKKPGSSVKVSCKASGGTFSSTAISWVRQAPGQGLEWMGGIWPSFGTASYAQKFQGRVTITADESTSTAYMELSSLRSEDTAVYYCARAEYSSTGIFDYWGQGTLVTVSS VL: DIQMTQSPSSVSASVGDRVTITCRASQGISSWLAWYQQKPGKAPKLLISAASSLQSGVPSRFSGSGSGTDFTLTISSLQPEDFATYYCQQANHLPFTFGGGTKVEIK the listed pKd is 9.11
